Tested on: ring stage parasites
Experiment: Parasite growth potency assay, 72 hours, LDH readout
Type: cell-based
Conditions: 72 h, parasite growth measured by LDH assay after 72 hours at 37° C.; 0.7% rings, 2% haematocrit; read-out: EC50
Counter-ions that a name gives are not always drawn.
readout kind: pEC50
# pEC50: negative log10 of molar concentration; output just the value

CC1(C)CC(=O)N(Cc2cccc(C(=O)N[C@@H]3c4ccccc4OC(C)(C)C3(C)O)c2)C(=N)N1 (stereo in doubt): 7.20

Give the measured pEC50 of COCC[C@H](c1cncc(C(=O)N[C@H]2CC(C)(C)Oc3ccccc32)c1)N1C(=N)N[C@](C)(C(C)C)CC1=O [Example 104, trifluoroacetate] .
9.05

---

Test system: ring stage parasites
Assay: Parasite growth potency assay, 72 hours, LDH readout
Type: cell-based
Conditions: 72 h, parasite growth measured by LDH assay after 72 hours at 37° C.; 0.7% rings, 2% haematocrit; read-out: EC50
Structures can show the parent of a compound that is named as a salt.
// values below are reported pEC50
The quantity pEC50 is defined as the negative base-10 logarithm of the molar concentration.

Would you please look over these solved cases?
N=C1N[C@@](CC2CC2)(c2ccccc2)CC(=O)N1Cc1cccc(C(=O)N[C@H]2CCOc3ccccc32)c1 [Example 6A, trifluoroacetate]: 7.23
CC1(C)CC(=O)N(Cc2cccc(C(=O)N[C@@H]3c4ccccc4OC(C)(C)[C@H]3O)c2)C(=N)N1 [Example 194, trifluoroacetate]: 7.94
CCC1(CC)CC(=O)N([C@H](CCC#N)c2cccc(C(=O)N[C@H]3CC(C)(C)Oc4ccccc43)c2)C(=N)N1 [Example 107, trifluoroacetate]: 9.70
COCC[C@H](c1cccc(C(=O)NC2c3cc(F)ccc3OC(C)(C)C2(C)O)c1)N1C(=N)NC(C)(C)CC1=O (stereo partly drawn) [Example 235]: 9.49
CCC1(CC)CC(=O)N([C@H](c2ccc(S(C)(=O)=O)cc2)c2cccc(C(=O)N[C@H]3CC(C)(C)Oc4ccccc43)c2)C(=N)N1 [Example 115A, trifluoroacetate]: 9.00

Now for a further compound.
Could you tell me which pEC50 is on file for CCC1(CC)CC(=O)N(Cc2cc(C(=O)N[C@@H]3c4ccccc4OC(C)(C)[C@H]3O)ccn2)C(=N)N1 (stereo in doubt) [Example 133, trifluoroacetate] ?
8.48

---

Readings of EC50 for the listed molecules
Tested on: ring stage parasites
Experiment: Parasite growth potency assay, 72 hours, LDH readout
Format: cell-based
Details: 72 h, parasite growth measured by LDH assay after 72 hours at 37° C.; 0.7% rings, 2% haematocrit; read-out: EC50
Counter-ions that a name gives are not always drawn.
Please give a number only; it is taken to be in nM.

Here's what some known entries look like.
CCC1(CC)CC(=O)N([C@H](C)c2cccc(C(=O)N[C@@H]3c4ccccc4OC(C)(C)[C@H]3O)c2)C(=N)N1 [Example 193, trifluoroacetate]: 0.6
CCC1(COC)CC(=O)N(Cc2cccc(C(=O)N[C@@H]3c4ccccc4C[C@H]3O)c2)C(=N)N1 (stereo partly drawn) [Example 95, trifluoroacetate]: 43.2
CCC1(CC)CC(=O)N(Cc2cc(F)cc(C(=O)N[C@@H]3c4cc(F)ccc4OC(C)(C)[C@H]3O)c2)C(=N)N1 (stereo in doubt) [Example 148, trifluoroacetate]: 1
C#CCC[C@H](c1cccc(C(=O)N[C@H]2CC(C)(C)Oc3ccccc32)c1)N1C(=N)N[C@](C)(C(C)C)CC1=O [Example 108A, trifluoroacetate]: 0.4
CCC1(CC)CC(=O)N(Cc2cccc(C(=O)N[C@H]3CCc4ccccc43)c2)C(=N)N1 [Example 77, trifluoroacetate]: 14.7

Query molecule follows.
Record CCC[C@H](c1cccc(C(=O)N[C@@H]2c3ccccc3C[C@H]2O)c1)N1C(=N)N[C@@](CC)(c2ccccc2)CC1=O [Example 67, trifluoroacetate] : what is its EC50 with ring stage parasites?
2.7

---

Entries annotated with measured pEC50
Tested on: ring stage parasites
Experiment: Parasite growth potency assay, 72 hours, LDH readout
Type: cell-based
Details: 72 h, parasite growth measured by LDH assay after 72 hours at 37° C.; 0.7% rings, 2% haematocrit; read-out: EC50
Counter-ions that a name gives are not always drawn.
# pEC50 is unitless: minus log10 of the molar concentration; print number only

CCC1(CC)CC(=O)N(Cc2ccnc(C(=O)N[C@H]3CCOc4ccccc43)c2)C(=N)N1 [Example 22, trifluoroacetate]: 7.76
CCC1(CC)CC(=O)N([C@H](CC(C)(C)O)c2cccc(C(=O)N[C@H]3CC(C)(C)Oc4ccccc43)c2)C(=N)N1 [Example 145]: 9.15
CCC[C@H](c1cccc(C(=O)N[C@H]2CCOc3ccccc32)c1)N1C(=N)N[C@](CC2CC2)(c2ccccc2)CC1=O [Example 68, trifluoroacetate]: 7.14
COCC[C@H](c1cncc(C(=O)N[C@@H]2c3ccccc3C[C@H]2O)c1)N1C(=N)N[C@](C)(C(C)C)CC1=O [Example 130, trifluoroacetate]: 7.73
CCC1(CC)CC(=O)N([C@H](CCOC)c2cc(F)cc(C(=O)N[C@@H]3c4ccccc4OC3(C)COC)c2)C(=N)N1 (stereo partly drawn) [Example 176B, trifluoroacetate]: 9.05

So what's the measured pEC50 for this one? CCC[C@H](c1cc(C(=O)N[C@H]2CCOc3ccccc32)ccn1)N1C(=N)NC(CC)(CC)CC1=O [Example 49A, trifluoroacetate]
9.15

What about this compound? CCC[C@H](c1cccc(C(=O)N[C@@H]2c3ccccc3C[C@H]2O)c1)N1C(=N)N[C@](CC)(c2ccccc2)CC1=O [Example 71, trifluoroacetate]
8.03

Then what about the compound CCC1(CC)CC(=O)N([C@H](CCS(C)(=O)=O)c2cccc(C(=O)N[C@@H]3c4ccccc4OC(C)(C)[C@H]3O)c2)C(=N)N1 [Example 155, trifluoroacetate] ?
7.76

What about this compound? CC(C)[C@]1(C)CC(=O)N(Cc2cccc(C(=O)NC3CC(C)(C)Oc4ccccc43)c2)C(=N)N1 (stereo partly drawn) [Example 79, trifluoroacetate]
8.68

---

Tested on: ring stage parasites
Assay: Parasite growth potency assay, 72 hours, LDH readout
Assay type: cell-based
Conditions: 72 h, parasite growth measured by LDH assay after 72 hours at 37° C.; 0.7% rings, 2% haematocrit; read-out: EC50
Counter-ions that a name gives are not always drawn.
Parameter EC50: see the listing below.
Write the answer as a number in nM, unit excluded.

CCC1(C)CC(=O)N([C@H](CCOC)c2cccc(C(=O)N[C@@H]3c4ccccc4C4(CC4)[C@H]3O)c2)C(=N)N1 (stereo partly drawn) [Example 168, trifluoroacetate]: 1.4
CCC1(CC)CC(=O)N([C@@H](CCOC)c2cccc(C(=O)N[C@H]3C[C@H](C(F)(F)F)Oc4ccccc43)c2)C(=N)N1 [Example 132A]: 59
CCC1(CC)CC(=O)N([C@H](C)c2cccc(C(=O)N[C@H]3CCOc4ccccc43)c2)C(=N)N1 [Example 31, trifluoroacetate]: 0.8

Reported EC50, molecule CCC[C@H](c1cccc(C(=O)N[C@@H]2c3ccccc3CC2(C)O)c1)N1C(=N)NC(CC)(CC)CC1=O (stereo partly drawn) [Example 122A] : ____
1.2

Again, but for CCC1(CC)CC(=O)N(Cc2ccnc(C(=O)N[C@@H]3c4ccccc4C[C@H]3O)c2)C(=N)N1 [Example 36, trifluoroacetate]
16.8

Try CCC1(CC)CC(=O)N(Cc2cccc(C(=O)NC3(C)CCOc4ccccc43)c2)C(=N)N1 (stereo not drawn) next.
96.1

---

Tested on: ring stage parasites
Test: Parasite growth potency assay, 72 hours, LDH readout
Format: cell-based
Conditions: 72 h, parasite growth measured by LDH assay after 72 hours at 37° C.; 0.7% rings, 2% haematocrit; read-out: EC50
Counter-ions that a name gives are not always drawn.
Listed below: EC50 values for each entry.
Please respond with the number in nM and leave the unit unwritten.

Some molecules with known EC50 results, for comparison:
CCC1(C)CC(=O)N([C@H](CCOC)c2cccc(C(=O)N[C@@H]3c4ccccc4C[C@H]3O)c2)C(=N)N1 (some centres unmarked) [Example 195A, trifluoroacetate]: 3.3
CCC1(CC)CC(=O)N([C@H](CCOC)c2cccc(C(=O)NC3c4ccccc4CC3(C)O)c2)C(=N)N1 (single isomer, unassigned) [Example 142B]: 1.4
CCC1(CC)CC(=O)N([C@H](CCOC)c2cccc(C(=O)N[C@@H]3c4cc(F)ccc4OC(C)(C)[C@H]3O)c2)C(=N)N1 [Example 165B, trifluoroacetate]: 0.4
C[C@H](c1cccc(C(=O)N[C@H]2CCOc3ccccc32)c1)N1C(=N)N[C@@](CC2CC2)(c2ccccc2)CC1=O [Example 7, trifluoroacetate]: 39.2
CCC1(CC)CC(=O)N(Cc2ccc(F)c(C(=O)N[C@H]3CCOc4ccccc43)c2)C(=N)N1 [Example 21, trifluoroacetate]: 3.5

Requested read-out EC50, target or system ring stage parasites, entry C#CCC[C@H](c1cccc(C(=O)NC2CC3(CCC3)Oc3ccccc32)c1)N1C(=N)NC(CC)(CC)CC1=O (stereo in doubt) [Example 211A, trifluoroacetate]
25

What do you have for CCC1(CC)CC(=O)N(Cc2cc(C(=O)NC3CC(C)(C)Oc4ccccc43)ccn2)C(=N)N1 (centres unmarked) [Example 80, trifluoroacetate] ?
1.7

What about this molecule? CCC1(CC)CC(=O)N(Cc2cccc(C(=O)N[C@H]3CC(C)(C)Oc4ccc(F)cc43)c2)C(=N)N1 (stereo in doubt) [Example 88, trifluoroacetate]
0.4

What do you get for CCC1(CC)CC(=O)N([C@@H](COCCOC)c2cccc(C(=O)N[C@H]3CC(C)(C)Oc4ccccc43)c2)C(=N)N1 (single isomer, unassigned) [Example 112B, trifluoroacetate] ?
59.6
